- Study System: FIBCD1 ectodomain (Homo sapiens)
- Construct: The V5-His tagged putative ectodomain of FIBCD1, encoding amino acid 54-461, was generated by PCR; made in house; host or cells: HEK293 (Flp-In T-REx), secreted via pSecTag/FRT/V5-His TOPO vector
- Sequence (Q8N539 54-461): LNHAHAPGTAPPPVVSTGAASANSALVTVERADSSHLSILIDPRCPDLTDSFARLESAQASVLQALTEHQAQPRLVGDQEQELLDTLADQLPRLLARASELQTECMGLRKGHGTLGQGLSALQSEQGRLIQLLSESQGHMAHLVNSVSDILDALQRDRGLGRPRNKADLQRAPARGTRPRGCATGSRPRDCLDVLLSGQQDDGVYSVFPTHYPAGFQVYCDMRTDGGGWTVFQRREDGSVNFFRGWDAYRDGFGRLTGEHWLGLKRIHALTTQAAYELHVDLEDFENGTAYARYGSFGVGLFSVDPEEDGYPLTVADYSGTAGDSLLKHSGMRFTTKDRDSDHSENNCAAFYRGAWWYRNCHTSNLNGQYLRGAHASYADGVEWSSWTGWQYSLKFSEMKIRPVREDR
- Procedure Text: ELISA inhibition of binding between FIBCD1 ectodomain and acetylated BSA
- Condition Description: 100 ng/ml FIBCD1 ectodomain, 5 mM CaCl2; N.I. = less than 50% inhibition at 50 mM; read-out: I50 of the binding between FIBCD1 and acetylated BSA
Measured Endpoint: pIC50
The scale used: pIC50 is minus the common logarithm of the concentration in molar units.

**Query** Report pIC50 for "CC(=O)N[C@@H]1[C@@H](O)[C@@H](O)[C@@H](CO)O[C@@H]1O" please.
**Result** 2.30
